Test system: CAMK1D
Settings: concentration: 1 μM,replicates: in singlicate; n = 1;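 note: KINOMEscan kinase panel screen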
READOUT: %Inh (%)
Supply the numeric figure in %, leaving out any unit text.

Query: %Inh for C[C@@H]1CCN(C(=O)N2CCCC2)C[C@@H]1N(C)c1ncnc2[nH]ccc12 ?
Response: 8

Query: %Inh for O=C(Nc1cccc(Oc2ccc3nccn3n2)c1)Nc1cccc(C(F)(F)F)c1 ?
Response: 12

Query: %Inh for Nc1nccc(-c2ccc3c(N)n[nH]c3c2)n1 ?
Response: 7

Query: %Inh for Cc1ccc(Nc2ccnc(Nc3ccc4c(c3)CS(=O)(=O)C4)n2)cc1O.Cl ?
Response: 38

Query: %Inh for CC(C(=O)NC1CCN(c2ccnc(Nc3ccc(F)cc3)n2)C1)c1ccc(Cl)cc1 (centres unmarked) ?
Response: 8

---

Test system: GRK3
Construct: gene ADRBK2
Details: concentration: 1 μM,replicates: in singlicate; n = 1
Kindly state %Inh for each of the entries shown.
Supply the numeric figure in %, leaving out any unit text.

Query: Item: O=C(Nc1ccccc1)c1cccc(Oc2ccc3nccn3n2)c1 Test system: GRK3 Read-out: %Inh Value: ?
Response: 26

Query: Item: CCn1c(-c2nonc2N)nc2cncc(CNC3CCNCC3)c21.Cl Test system: GRK3 Read-out: %Inh Value: ?
Response: 59

Query: Item: CC(=O)Nc1nc2cnc(Nc3cc(NC(=O)c4cccc(CC(C)(C)C#N)c4)ccc3C)nc2s1 Test system: GRK3 Read-out: %Inh Value: ?
Response: 0

Query: Item: C[C@@H]1CCN(C(=O)N2CCCC2)C[C@@H]1N(C)c1ncnc2[nH]ccc12 Test system: GRK3 Read-out: %Inh Value: ?
Response: 36

Query: Item: Cn1ccc2ncnc(Oc3ccc(NC(=O)Nc4cncc(C(F)(F)F)c4)c(Cl)c3)c21 Test system: GRK3 Read-out: %Inh Value: ?
Response: 0

---

Kindly state %Inh for each of the entries shown.
System: NDR1
Construct: gene STK38
Settings: concentration: 1 μM,replicates: in singlicate; n = 1
Supply the numeric figure in %, leaving out any unit text.

Query: Item: C[C@@H]1CNc2c(sc3ccc4nc(-c5ccncc5)ccc4c23)C(=O)N1 Test system: NDR1 Read-out: %Inh Value: ?
Response: 18

Query: Item: Cn1ccc2ncnc(Oc3ccc(NC(=O)Nc4cc(C(C)(C)C)on4)c(Cl)c3)c21 Test system: NDR1 Read-out: %Inh Value: ?
Response: 0

Query: Item: CCCC(=O)Nc1n[nH]c2ncccc12 [SB-601436] Test system: NDR1 Read-out: %Inh Value: ?
Response: 9

Query: Item: Cc1ccc(C(=O)Nc2ccc(Oc3ccc4nc(NC(=O)C5CC5)cn4c3)c(F)c2)c(=O)n1-c1ccccc1 Test system: NDR1 Read-out: %Inh Value: ?
Response: 8

Query: Item: C[C@@H]1CCN(C(=O)N2CCCC2)C[C@@H]1N(C)c1ncnc2[nH]ccc12 Test system: NDR1 Read-out: %Inh Value: ?
Response: 4

Query: Item: COc1cccc(C2=C(Nc3cccc(Cl)c3)C(=O)NC2=O)c1 [SB-341556] Test system: NDR1 Read-out: %Inh Value: ?
Response: 0

Query: Item: COc1cc2c(Nc3ccc(NC(=O)c4ccccc4)cc3)ncnc2cc1OCCCN1CCOCC1 [GSK301329] Test system: NDR1 Read-out: %Inh Value: ?
Response: 5

Query: Item: CCN1CCN(CCCC(=O)Nc2n[nH]c3nc(-c4ccc(O)cc4)c(Br)cc23)CC1 [SB-731579] Test system: NDR1 Read-out: %Inh Value: ?
Response: 0

Query: Item: Cn1ccc2ncnc(Oc3ccc(NC(=O)Nc4cccc(C(F)(F)F)c4)c(F)c3)c21 Test system: NDR1 Read-out: %Inh Value: ?
Response: 10

Query: Item: CN(c1ccc2c(c1)nc(NCc1ccc(F)cc1)n2C)c1ccnc(Nc2ccc(CS(C)(=O)=O)cc2)n1.Cl [GW813244] Test system: NDR1 Read-out: %Inh Value: ?
Response: 31

Query: Item: Cc1n[nH]c2cc(Nc3ccnc(Nc4cccc(CN5CCOCC5)c4)n3)ccc12 [GW682569] Test system: NDR1 Read-out: %Inh Value: ?
Response: 25

Query: Item: NC(=O)c1ccc(-c2cc3ncnc(SCC(=O)O)c3s2)cc1 Test system: NDR1 Read-out: %Inh Value: ?
Response: 31

Query: Item: O=C1NCCc2[nH]c(-c3ccncc3)cc21 Test system: NDR1 Read-out: %Inh Value: ?
Response: 20

Query: Item: N#Cc1cccc(C(=O)NC2CCN(c3ccnc(Nc4ccc(F)cc4)n3)C2)c1 (stereo not drawn) [GSK1379708] Test system: NDR1 Read-out: %Inh Value: ?
Response: 0

Query: Item: CN(c1cccc(CNc2nc(Nc3ccc4c(c3)CC(=O)N4)ncc2C(F)(F)F)c1)S(C)(=O)=O Test system: NDR1 Read-out: %Inh Value: ?
Response: 49

Query: Item: COc1cc(Nc2nccc(N3CCC(NC(=O)c4cccc(C#N)c4)C3)n2)cc(OC)c1OC (stereo not drawn) [GSK1379751] Test system: NDR1 Read-out: %Inh Value: ?
Response: 0

Query: Item: CN1CCN(CCNc2nc3cc(Oc4ccc(NC(=O)Nc5cc(C(F)(F)F)ccc5F)cc4)ccc3[nH]2)CC1.Cl.Cl [GW768504] Test system: NDR1 Read-out: %Inh Value: ?
Response: 51

Query: Item: CCn1c(-c2nonc2N)nc2cncc(Br)c21 [SB-738004] Test system: NDR1 Read-out: %Inh Value: ?
Response: 38
